molecular target: Ba/F3-FGFR1-transfected cells (Homo sapiens, UniProt P11362); test: Ba/F3-FGFR1 (minus IL3) cellular proliferation assay, Alamar Blue; type: cell-based; settings: minus IL3, 384 well
Sequence (P11362 whole entry, change not shown): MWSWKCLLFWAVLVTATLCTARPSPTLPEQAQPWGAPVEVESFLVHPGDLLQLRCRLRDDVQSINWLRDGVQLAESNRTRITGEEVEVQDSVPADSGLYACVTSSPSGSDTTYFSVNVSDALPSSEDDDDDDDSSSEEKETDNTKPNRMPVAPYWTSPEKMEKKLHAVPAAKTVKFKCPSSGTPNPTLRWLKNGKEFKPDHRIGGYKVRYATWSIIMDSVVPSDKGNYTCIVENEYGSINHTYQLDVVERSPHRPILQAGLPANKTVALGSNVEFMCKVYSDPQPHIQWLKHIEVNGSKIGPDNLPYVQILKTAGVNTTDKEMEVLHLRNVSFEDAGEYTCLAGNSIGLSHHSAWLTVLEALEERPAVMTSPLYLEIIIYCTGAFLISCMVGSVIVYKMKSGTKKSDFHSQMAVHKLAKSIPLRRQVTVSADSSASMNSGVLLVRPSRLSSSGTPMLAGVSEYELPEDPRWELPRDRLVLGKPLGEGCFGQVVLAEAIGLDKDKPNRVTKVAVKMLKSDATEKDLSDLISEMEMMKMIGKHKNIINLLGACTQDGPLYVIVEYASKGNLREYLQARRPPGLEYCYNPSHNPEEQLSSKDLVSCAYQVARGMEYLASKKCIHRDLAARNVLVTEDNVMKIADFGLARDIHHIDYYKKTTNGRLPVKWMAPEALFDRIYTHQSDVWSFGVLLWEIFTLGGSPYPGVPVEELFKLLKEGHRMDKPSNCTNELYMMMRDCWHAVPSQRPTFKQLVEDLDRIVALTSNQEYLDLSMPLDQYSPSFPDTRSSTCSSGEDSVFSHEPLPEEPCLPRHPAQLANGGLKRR
OBSERVED_PROPERTY: BAF3-FGFR 1 (MIN IL3) 384 well pIC50
Could you keep your reply to the number by itself?

1) COc1cc(OC)cc(N(CCCO)c2ccc3ncc(-c4ccnc(C(=O)NCCOCCO)c4)nc3c2)c1 [Compound 186]	5.98

Please report the recorded BAF3-FGFR 1 (MIN IL3) 384 well pIC50 for CNC(=O)c1cc(-c2cnc3ccc(N(CCCNCC(F)(F)F)c4cc(OC)cc(OC)c4)cc3n2)ccn1 [Compound 122] .
5.29

Values compiled from patent US10052320B2.
